Data origin: patent US20050119461A1

- Test system: I2-receptor
- assay-overview: I2-receptor binding, [3H]-idazoxan displacement in rat brain homogenates
- details: rat
assay-readout: affinity for the I2-receptor (in words)

{"compound": "c1ccc2nc(C3=NCCN3)ccc2c1 [BU-224, 2-(4,5-dihydroimidaz-2-yl)quinoline]", "assay-readout": "affinity for the I2-receptor (in words)", "value-observed": "high affinity (nM)"}
{"compound": "c1ccc2c(c1)OCC(C1=NCCN1)O2 (stereo not shown)", "assay-readout": "affinity for the I2-receptor (in words)", "value-observed": "high affinity (nM)"}
{"compound": "C1COC(NC(C2CC2)C2CC2)=N1", "assay-readout": "affinity for the I2-receptor (in words)", "value-observed": "high affinity (nM)"}
